TEST TARGET: CB2 receptor (cannabinoid receptor 2) (Homo sapiens)
Construct: gene CNR2
Sequence (P34972 whole entry): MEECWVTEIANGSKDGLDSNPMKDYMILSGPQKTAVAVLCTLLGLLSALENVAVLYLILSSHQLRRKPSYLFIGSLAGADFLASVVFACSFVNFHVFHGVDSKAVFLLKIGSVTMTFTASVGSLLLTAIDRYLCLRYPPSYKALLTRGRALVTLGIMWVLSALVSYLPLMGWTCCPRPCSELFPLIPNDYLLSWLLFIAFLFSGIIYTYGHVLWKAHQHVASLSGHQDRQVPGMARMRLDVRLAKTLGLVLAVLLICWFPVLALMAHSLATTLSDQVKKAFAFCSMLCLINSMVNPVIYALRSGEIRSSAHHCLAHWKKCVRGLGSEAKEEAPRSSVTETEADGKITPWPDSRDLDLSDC
EXPERIMENTAL DETAILS: radioligand binding assay, dose-response
pKi: −log10 of the molar value.

| SMILES INPUT | pKi |
| --- | --- |
| CCCn1c(C)c(C(=O)NCC(=O)N2CCCCC2)c2cc(OC)ccc21 | 5.42 |
